Target: CYP2C8 (Homo sapiens, UniProt P10632)
Sequence (P10632 1-490): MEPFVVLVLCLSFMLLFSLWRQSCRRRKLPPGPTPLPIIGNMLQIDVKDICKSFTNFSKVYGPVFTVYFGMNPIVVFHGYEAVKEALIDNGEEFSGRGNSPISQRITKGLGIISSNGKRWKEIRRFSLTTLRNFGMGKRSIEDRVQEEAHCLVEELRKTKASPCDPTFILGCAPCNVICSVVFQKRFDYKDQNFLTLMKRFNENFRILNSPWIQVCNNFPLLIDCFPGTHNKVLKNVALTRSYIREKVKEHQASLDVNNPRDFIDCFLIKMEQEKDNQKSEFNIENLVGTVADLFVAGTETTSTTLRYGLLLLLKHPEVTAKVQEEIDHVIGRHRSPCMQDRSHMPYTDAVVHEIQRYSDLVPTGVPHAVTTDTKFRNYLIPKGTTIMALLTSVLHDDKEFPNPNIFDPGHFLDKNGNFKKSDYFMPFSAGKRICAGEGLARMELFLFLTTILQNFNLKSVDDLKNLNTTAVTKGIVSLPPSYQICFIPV
Assay: CYP inhibition
Assay type: in vitro ADME
pIC50: −log10 of the molar value.

| Compound smiles | pIC50 |
| --- | --- |
| CCn1ncc2c1-c1cnc(N)c(c1)O[C@H](C)c1cc(F)ccc1-c1nn(C)nc1C2 | 4.15 |

###

target: Ba/F3 CLIP1-LTK (Homo sapiens); construct: the other entry of the earlier key: CLIP1 (P30622, CAP-Gly domain-containing linker protein 1); assay: Cell viability assay for LTK cell line; conditions: 72 hours
Sequence (P29376 450-864 limits assumed): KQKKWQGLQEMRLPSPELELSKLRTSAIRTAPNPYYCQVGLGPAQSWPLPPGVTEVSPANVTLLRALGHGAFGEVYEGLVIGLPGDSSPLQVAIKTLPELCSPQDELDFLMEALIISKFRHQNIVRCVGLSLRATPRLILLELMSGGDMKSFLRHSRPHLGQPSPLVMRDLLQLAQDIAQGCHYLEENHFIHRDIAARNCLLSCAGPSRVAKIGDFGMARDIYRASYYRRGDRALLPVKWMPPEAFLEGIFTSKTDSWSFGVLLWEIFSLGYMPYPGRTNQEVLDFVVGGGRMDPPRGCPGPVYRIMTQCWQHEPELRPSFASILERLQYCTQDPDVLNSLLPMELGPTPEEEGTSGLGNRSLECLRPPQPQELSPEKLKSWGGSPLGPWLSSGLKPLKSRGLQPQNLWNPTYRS
pIC50: −log10 of the molar value.

| Compound smiles | Target or test system | pIC50 |
| --- | --- | --- |
| CCn1ncc2c1-c1cnc(N)c(c1)O[C@H](C)c1cc(F)ccc1-c1nn(C)nc1C2 | Ba/F3 CLIP1-LTK (Homo sapiens) | 8.02 |

###

test: Phase 1/2 clinical study: pharmacokinetics; type: in vivo, human; settings: human, plasma, oral, 125 mg, Cycle 1 Day 15; 125 mg QD; single value

| Compound smiles | AUC(0-inf) (ng·h/mL) |
| --- | --- |
| CCn1ncc2c1-c1cnc(N)c(c1)O[C@H](C)c1cc(F)ccc1-c1nn(C)nc1C2 | 7500 |

###

experiment: Phase 1/2 clinical study: pharmacokinetics; assay type: in vivo, human; settings: human, plasma, oral, 25 mg, Cycle 1 Day 15; 25 mg QD; geometric mean; read-out: Vz/F
Readout type: Vd/F (L)

| Compound smiles | Endpoint result |
| --- | --- |
| CCn1ncc2c1-c1cnc(N)c(c1)O[C@H](C)c1cc(F)ccc1-c1nn(C)nc1C2 | 243 |

###

test: Phase 1/2 clinical study: pharmacokinetics; type: in vivo, human; details: human, plasma, oral, 125 mg, Cycle 1 Day 1; 125 mg QD; arithmetic mean; read-out: t1/2 (converted)

| Compound smiles | Quantity unit | half-life |
| --- | --- | --- |
| CCn1ncc2c1-c1cnc(N)c(c1)O[C@H](C)c1cc(F)ccc1-c1nn(C)nc1C2 | h | 10.1 |

###

experiment: Phase 1/2 clinical study: pharmacokinetics; type: in vivo, human; settings: human, plasma, oral, 125 mg, Cycle 1 Day 15; 125 mg QD; geometric mean
Readout type: Cmax (ng/mL)

| Compound smiles | Endpoint result |
| --- | --- |
| CCn1ncc2c1-c1cnc(N)c(c1)O[C@H](C)c1cc(F)ccc1-c1nn(C)nc1C2 | 734 |

###

test: Phase 1/2 clinical study: pharmacokinetics; type: in vivo, human; settings: human, plasma, oral, 100 mg, Cycle 1 Day 15; 100 mg QD; geometric mean
Readout type: Cmax (ng/mL)

| Compound smiles | Readout type | Quantity unit | Endpoint result |
| --- | --- | --- | --- |
| CCn1ncc2c1-c1cnc(N)c(c1)O[C@H](C)c1cc(F)ccc1-c1nn(C)nc1C2 | Cmax | ng/mL | 819 |

###

target: UniProtKB P11712
Sequence (P11712 whole entry): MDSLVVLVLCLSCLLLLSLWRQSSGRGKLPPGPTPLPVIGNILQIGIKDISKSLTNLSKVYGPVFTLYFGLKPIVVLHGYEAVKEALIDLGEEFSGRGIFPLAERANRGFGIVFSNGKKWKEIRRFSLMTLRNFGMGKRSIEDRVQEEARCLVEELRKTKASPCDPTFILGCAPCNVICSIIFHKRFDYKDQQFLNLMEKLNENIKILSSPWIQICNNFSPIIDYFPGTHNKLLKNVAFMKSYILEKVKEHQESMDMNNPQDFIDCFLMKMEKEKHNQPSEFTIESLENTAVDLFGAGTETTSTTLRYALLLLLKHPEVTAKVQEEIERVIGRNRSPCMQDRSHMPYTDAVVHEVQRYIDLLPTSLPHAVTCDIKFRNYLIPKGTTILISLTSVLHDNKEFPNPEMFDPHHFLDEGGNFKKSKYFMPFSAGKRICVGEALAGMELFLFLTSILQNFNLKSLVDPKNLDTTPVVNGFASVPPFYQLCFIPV

| Molecule | Quantity unit | IC50 |
| --- | --- | --- |
| CCn1ncc2c1-c1cnc(N)c(c1)O[C@H](C)c1cc(F)ccc1-c1nn(C)nc1C2 [Compound 1] | µM | 70.3 |

###

experiment: Phase 1/2 clinical study: pharmacokinetics; type: in vivo, human; conditions: human, plasma, oral, 100 mg, Cycle 1 Day 15; 100 mg QD; geometric mean; read-out: Vz/F

| Compound smiles | Vd/F, L |
| --- | --- |
| CCn1ncc2c1-c1cnc(N)c(c1)O[C@H](C)c1cc(F)ccc1-c1nn(C)nc1C2 | 261 |

###

test: Phase 1/2 clinical study: pharmacokinetics; type: in vivo, human; conditions: human, plasma, oral, 100 mg, Cycle 1 Day 1; 100 mg QD; median

| Compound smiles | Tmax [h] |
| --- | --- |
| CCn1ncc2c1-c1cnc(N)c(c1)O[C@H](C)c1cc(F)ccc1-c1nn(C)nc1C2 | 1.5 |

###

experiment: Phase 1/2 clinical study: pharmacokinetics; type: in vivo, human; conditions: human, plasma, oral, 75 mg, Cycle 1 Day 15; 75 mg QD; arithmetic mean; read-out: t1/2 (converted)

| Compound smiles | half-life [h] |
| --- | --- |
| CCn1ncc2c1-c1cnc(N)c(c1)O[C@H](C)c1cc(F)ccc1-c1nn(C)nc1C2 | 23.6 |

###

molecular target: CYP2C19 (Homo sapiens, UniProt P33261)
Sequence (P33261 whole entry): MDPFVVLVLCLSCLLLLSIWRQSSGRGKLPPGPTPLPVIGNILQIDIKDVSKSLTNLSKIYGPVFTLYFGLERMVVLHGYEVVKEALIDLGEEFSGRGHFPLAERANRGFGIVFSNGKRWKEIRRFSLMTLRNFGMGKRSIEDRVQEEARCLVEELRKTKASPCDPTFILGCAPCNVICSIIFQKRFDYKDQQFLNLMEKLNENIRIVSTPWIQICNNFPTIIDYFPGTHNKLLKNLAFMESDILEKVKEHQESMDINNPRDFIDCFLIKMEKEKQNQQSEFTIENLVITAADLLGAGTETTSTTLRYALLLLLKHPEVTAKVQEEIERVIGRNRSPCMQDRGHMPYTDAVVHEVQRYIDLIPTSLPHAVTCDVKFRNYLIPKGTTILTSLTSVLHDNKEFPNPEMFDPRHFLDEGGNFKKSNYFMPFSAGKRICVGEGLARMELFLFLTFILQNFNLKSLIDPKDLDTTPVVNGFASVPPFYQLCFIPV

| Compound | Quantity unit | IC50 |
| --- | --- | --- |
| CCn1ncc2c1-c1cnc(N)c(c1)O[C@H](C)c1cc(F)ccc1-c1nn(C)nc1C2 [Compound 1] | µM | 38.4 |

###

assay: Phase 1/2 clinical study: pharmacokinetics; type: in vivo, human; conditions: human, plasma, oral, 50 mg, Cycle 1 Day 1; 50 mg QD; geometric mean; read-out: Vz/F

| Compound smiles | Vd/F |
| --- | --- |
| CCn1ncc2c1-c1cnc(N)c(c1)O[C@H](C)c1cc(F)ccc1-c1nn(C)nc1C2 | 200 L |

###

test: Phase 1/2 clinical study: pharmacokinetics; type: in vivo, human; details: human, plasma, oral, 50 mg, Cycle 1 Day 1; 50 mg QD; median

| Compound | Quantity unit | Tmax |
| --- | --- | --- |
| CCn1ncc2c1-c1cnc(N)c(c1)O[C@H](C)c1cc(F)ccc1-c1nn(C)nc1C2 [Compound 1] | h | 1 |

###

experiment: Phase 1/2 clinical study: pharmacokinetics; assay type: in vivo, human; details: human, plasma, oral, 75 mg, Cycle 1 Day 1; 75 mg QD; geometric mean; read-out: Vz/F
Readout type: Vd/F

| Molecule | Endpoint result |
| --- | --- |
| CCn1ncc2c1-c1cnc(N)c(c1)O[C@H](C)c1cc(F)ccc1-c1nn(C)nc1C2 [Compound 1] | 294 L |

###

Assay: Phase 1/2 clinical study: pharmacokinetics
Format: in vivo, human
Conditions: human, plasma, oral, 125 mg, Cycle 1 Day 1; 125 mg QD; geometric mean
Source text: Each cycle of treatment is 28 days.
Readout type: AUC(0-inf) (ng·h/mL)

| Compound smiles | Endpoint result |
| --- | --- |
| CCn1ncc2c1-c1cnc(N)c(c1)O[C@H](C)c1cc(F)ccc1-c1nn(C)nc1C2 | 5980 |

###

assay: Phase 1/2 clinical study: pharmacokinetics; format: in vivo, human; details: human, plasma, oral, 125 mg, Cycle 1 Day 1; 125 mg QD; geometric mean; read-out: Vz/F

| Compound smiles | Vd/F / L |
| --- | --- |
| CCn1ncc2c1-c1cnc(N)c(c1)O[C@H](C)c1cc(F)ccc1-c1nn(C)nc1C2 | 304 |

###

Assay: Phase 1/2 clinical study: pharmacokinetics
Type: in vivo, human
Conditions: human, plasma, oral, 50 mg, Cycle 1 Day 15; 50 mg QD; geometric mean
Text: Each cycle of treatment is 28 days.
Readout type: Cmax (ng/mL)

| Compound | Quantity unit | Endpoint result |
| --- | --- | --- |
| CCn1ncc2c1-c1cnc(N)c(c1)O[C@H](C)c1cc(F)ccc1-c1nn(C)nc1C2 [Compound 1] | ng/mL | 687 |

###

experiment: Phase 1/2 clinical study: pharmacokinetics; type: in vivo, human; settings: human, plasma, oral, 25 mg, Cycle 1 Day 15; 25 mg QD; arithmetic mean; read-out: t1/2 (converted)
Readout type: half-life

| Compound smiles | Readout type | Endpoint result |
| --- | --- | --- |
| CCn1ncc2c1-c1cnc(N)c(c1)O[C@H](C)c1cc(F)ccc1-c1nn(C)nc1C2 | half-life | 20.3 h |

###

assay: Phase 1/2 clinical study: pharmacokinetics; format: in vivo, human; conditions: human, plasma, oral, 25 mg, Cycle 1 Day 15; 25 mg QD; median

| Compound smiles | Quantity unit | Tmax |
| --- | --- | --- |
| CCn1ncc2c1-c1cnc(N)c(c1)O[C@H](C)c1cc(F)ccc1-c1nn(C)nc1C2 | h | 1 |
